# System: CAKI-1 renal
# PROTOCOL SUMMARY: NCI-60 one-dose screen, 48 h
# STATED CONDITIONS: 10 µM unless noted
The panel holds about 83,000 compounds, 20% with a hit somewhere; the sample as a whole holds those more often. Calls of active or inactive are those of the source. Rule for the calls: active = growth percent below 10; inactive = the rest.
Labels: Yes = active, No = inactive

MOLECULE: COc1cc2nc(Cl)nc(Nc3cccc(C4=Nc5c(N)nc(N)nc5NC(c5ccc(Cl)cc5)C4)c3)c2cc1OC (stereo not given)
CLASS NAME: No
//
MOLECULE: C=C(C=O)[C@@H]1CC[C@]2(COC(C)=O)CC[C@]3(C)C(CC[C@@H]4[C@@]5(C)CC[C@H](OC(C)=O)C(C)(C)[C@@H]5CC[C@]43C)[C@@H]12 (stereo not given in full)
CLASS NAME: Yes
//
MOLECULE: O=C1CCCC2=C1C(c1c[nH]c3ccc(Br)cc13)Cc1cc(Br)ccc1N2 (stereo not given)
CLASS NAME: No
//
MOLECULE: O=C(Nc1ccc(Br)cc1)Nc1nc2ccc([N+](=O)[O-])cc2s1
CLASS NAME: Yes
//
MOLECULE: NC(N)=Nc1ccc(Oc2ccc(Nc3ccc(Cl)c(C(F)(F)F)c3)cc2)cc1
CLASS NAME: No
